# reported DPP-IV inhibitory activity; entries follow
Target: DPP-IV (Homo sapiens)
Sequence (P27487 whole entry): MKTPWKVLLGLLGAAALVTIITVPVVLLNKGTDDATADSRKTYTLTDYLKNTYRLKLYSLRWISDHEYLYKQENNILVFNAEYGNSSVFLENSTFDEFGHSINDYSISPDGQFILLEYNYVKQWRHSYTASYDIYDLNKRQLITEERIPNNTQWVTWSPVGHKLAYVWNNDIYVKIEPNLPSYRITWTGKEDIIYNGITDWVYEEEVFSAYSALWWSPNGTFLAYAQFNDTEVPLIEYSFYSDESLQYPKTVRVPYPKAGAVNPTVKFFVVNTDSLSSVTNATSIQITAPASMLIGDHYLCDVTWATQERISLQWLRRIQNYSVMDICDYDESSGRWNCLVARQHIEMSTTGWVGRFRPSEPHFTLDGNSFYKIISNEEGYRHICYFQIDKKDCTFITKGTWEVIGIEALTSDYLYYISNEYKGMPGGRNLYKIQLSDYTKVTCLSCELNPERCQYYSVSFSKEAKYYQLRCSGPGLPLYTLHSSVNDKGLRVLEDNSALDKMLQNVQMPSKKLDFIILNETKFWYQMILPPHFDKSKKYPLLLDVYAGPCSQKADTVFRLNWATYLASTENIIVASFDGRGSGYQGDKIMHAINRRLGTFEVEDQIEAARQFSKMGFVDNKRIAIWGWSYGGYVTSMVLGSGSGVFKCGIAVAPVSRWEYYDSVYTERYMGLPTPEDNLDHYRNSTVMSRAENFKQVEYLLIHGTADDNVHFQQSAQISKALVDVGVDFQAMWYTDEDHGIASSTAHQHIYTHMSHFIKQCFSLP
Experiment: DPP-IV inhibitory activity of peptides (DPP-IV-Glo Protease Assay Kit)
Format: biochemical
Set-up: purchased QiZheng Biotech (Shanghai, China) IBDPP0901
Settings: DPP-IV-Glo Protease Assay Kit; control = 0; replicate 3; sheet S2F; in % (unit assumed)
Where a SMILES comes first, the peptide text is derived from it.
# output: bare number, no unit

Some solved cases for reference:
N[C@@H](Cc1c[nH]c2ccccc12)C(=O)N[C@@H](CC(=O)O)C(=O)N[C@@H](CO)C(=O)N[C@@H](Cc1ccc(O)cc1)C(=O)O [WDSY] (H-WDSY-OH)    81.38
CC(C)C[C@H](N)C(=O)N[C@@H](CC(N)=O)C(=O)N[C@@H](C)C(=O)N1CCC[C@H]1C(=O)O [LNAP] (H-LNAP-OH)    12.0865

Then there is this compound:
Ask: Would you kindly share the measured DPP-IV inhibitory activity for CC(C)C[C@H](NC(=O)[C@H](CC(N)=O)NC(=O)[C@@H](N)Cc1ccc(O)cc1)C(=O)N1CCC[C@H]1C(=O)O [YNLP] (H-YNLP-OH) ?
Result: 22.0674

###

Assay: Simulated digestive stability of peptides (pepsase then trypsase)
Type: in vitro ADME, porcine
Settings: pig, pH 7, simulated digestion, after pepsase then trypsase, relative to basal 100; replicate 2; sheet S2H; read-out: Peptide remaining, Trypsase
Where a SMILES comes first, the peptide text is derived from it.
# reported remaining at 4 h, 5 mg/mL; entries follow
Note: unit % is implicit; provide only the numeric part.

CSCC[C@H](NC(=O)[C@H](CC(C)C)NC(=O)[C@H](CCC(N)=O)NC(=O)[C@@H](N)Cc1ccc(O)cc1)C(=O)O [YQLM] (H-YQLM-OH)    12.7
NC(=O)CC[C@H](NC(=O)[C@@H]1CCCN1C(=O)[C@@H](N)Cc1ccccc1)C(=O)N[C@@H](CO)C(=O)O [FPQS] (H-FPQS-OH)    83.4

Then there is this compound:
Ask: Would you kindly share the measured remaining at 4 h, 5 mg/mL for C[C@H](NC(=O)[C@H](Cc1ccc(O)cc1)NC(=O)[C@H](CO)NC(=O)[C@@H](N)Cc1ccc(O)cc1)C(=O)O [YSYA] (H-YSYA-OH) ?
Result: 3.24

###

Molecular target: DPP-IV (Homo sapiens)
Assay: DPP-IV inhibitory activity of peptides (DPP-IV-Glo Protease Assay Kit)
Assay type: biochemical
Design: purchased QiZheng Biotech (Shanghai, China) IBDPP0901
Conditions: source data of heatmap Fig 1J; read-out: IC50
Where a SMILES comes first, the peptide text is derived from it.
QUANTITY: IC50 (µM)
Note: unit µM is implicit; provide only the numeric part.

Ask: Item NC(=O)CC[C@H](NC(=O)[C@@H]1CCCN1C(=O)[C@@H](N)Cc1ccccc1)C(=O)N[C@@H](CO)C(=O)O [FPQS] (H-FPQS-OH) with DPP-IV (Homo sapiens) - IC50?
Result: 80

###

Test: Blood pharmacokinetics of VAMP, 10 mg/kg i.v. or p.o.
Assay type: in vivo
Details: mouse, blood, po; mice, 10 mg/kg p.o. vs i.v., printed in picture Fig 2P
Where a SMILES comes first, the peptide text is derived from it.
QUANTITY: bioavailability (%)
Note: unit % is implicit; provide only the numeric part.

Ask: Would you kindly share the measured bioavailability for CSCC[C@H](NC(=O)[C@H](C)NC(=O)[C@@H](N)C(C)C)C(=O)N1CCC[C@H]1C(=O)O [VAMP] (H-VAMP-OH) ?
Result: 10.5

###

# reported remaining at 4 h, 5 mg/mL; entries follow
Test: Simulated digestive stability of peptides (pepsase then trypsase)
Assay type: in vitro ADME, porcine
Details: pig, pH 7, simulated digestion, after pepsase then trypsase, relative to basal 100; replicate 3; sheet S2H; read-out: Peptide remaining, Trypsase
Where a SMILES comes first, the peptide text is derived from it.
Note: unit % is implicit; provide only the numeric part.

Some solved cases for reference:
C[C@H](NC(=O)[C@H](Cc1ccc(O)cc1)NC(=O)[C@H](CO)NC(=O)[C@@H](N)Cc1ccc(O)cc1)C(=O)O [YSYA] (H-YSYA-OH)    4.18
NC(=O)CC[C@H](NC(=O)[C@@H]1CCCN1C(=O)[C@@H](N)Cc1ccccc1)C(=O)N[C@@H](CO)C(=O)O [FPQS] (H-FPQS-OH)    87.9
CSCC[C@H](NC(=O)[C@H](CC(C)C)NC(=O)[C@H](CCC(N)=O)NC(=O)[C@@H](N)Cc1ccc(O)cc1)C(=O)O [YQLM] (H-YQLM-OH)    9.83
CC(C)C[C@H](NC(=O)[C@H](CC(N)=O)NC(=O)[C@@H](N)Cc1ccc(O)cc1)C(=O)N1CCC[C@H]1C(=O)O [YNLP] (H-YNLP-OH)    100
CC(C)C[C@H](NC(=O)[C@@H](N)CC(C)C)C(=O)N[C@@H](Cc1ccc(O)cc1)C(=O)O [LLY] (H-Leu-Leu-Tyr-OH)    0.81

Ask: Would you kindly share the measured remaining at 4 h, 5 mg/mL for CC(C)[C@H](N)C(=O)N[C@@H](C)C(=O)N[C@@H](CC(=O)O)C(=O)N[C@@H](Cc1c[nH]c2ccccc12)C(=O)O [VADW] (H-VADW-OH) ?
Result: 7.78

###

Assay: in vitro
Assay type: in vitro ADME, Akkermansia muciniphila
Details: cells or culture medium, VAMP remaining, incubated with A. muciniphila, time 24
Where a SMILES comes first, the peptide text is derived from it.
QUANTITY: remaining at 24 h, 100 μM (%)
Note: unit % is implicit; provide only the numeric part.

Ask: Would you kindly share the measured remaining at 24 h, 100 μM for CSCC[C@H](NC(=O)[C@H](C)NC(=O)[C@@H](N)C(C)C)C(=O)N1CCC[C@H]1C(=O)O [VAMP] (H-VAMP-OH) ?
Result: 28.1

###

Experiment: Simulated digestive stability of peptides (pepsase then trypsase)
Assay type: in vitro ADME, porcine
Details: pig, porcine pepsase (simulated gastric digestion), pH 3, simulated digestion, after porcine pepsase, relative to basal 100; replicate 3; sheet S2H; read-out: Peptide remaining, Pepsase
Where a SMILES comes first, the peptide text is derived from it.
Threshold check on remaining at 2 h, 5 mg/mL: strictly below 20% is true (1); on or above 20% is false (0).

Some entries whose results are on file:
CSCC[C@H](NC(=O)[C@H](CC(C)C)NC(=O)[C@H](CCC(N)=O)NC(=O)[C@@H](N)Cc1ccc(O)cc1)C(=O)O [YQLM] (H-YQLM-OH)    true (1)
CC(C)C[C@H](NC(=O)[C@@H](N)CC(C)C)C(=O)N[C@@H](Cc1ccc(O)cc1)C(=O)O [LLY] (H-Leu-Leu-Tyr-OH)    true (1)
CC(C)C[C@H](NC(=O)[C@H](CC(N)=O)NC(=O)[C@@H](N)Cc1ccc(O)cc1)C(=O)N1CCC[C@H]1C(=O)O [YNLP] (H-YNLP-OH)    false (0)

Ask: Does the reported remaining at 2 h, 5 mg/mL of the following molecule sit strictly below 20%? C[C@H](NC(=O)[C@H](Cc1ccc(O)cc1)NC(=O)[C@H](CO)NC(=O)[C@@H](N)Cc1ccc(O)cc1)C(=O)O [YSYA] (H-YSYA-OH)
Result: true (1)

Ask: // query: NC(=O)CC[C@H](NC(=O)[C@@H]1CCCN1C(=O)[C@@H](N)Cc1ccccc1)C(=O)N[C@@H](CO)C(=O)O [FPQS] (H-FPQS-OH)
Result: false (0)

Ask: // query: CC(C)[C@H](N)C(=O)N[C@@H](C)C(=O)N[C@@H](CC(=O)O)C(=O)N[C@@H](Cc1c[nH]c2ccccc12)C(=O)O [VADW] (H-VADW-OH)
Result: true (1)

###

Assay: in vitro
Format: in vitro ADME, Akkermansia muciniphila
Details: cells or culture medium, VAMP remaining, incubated with A. muciniphila, time 3
Where a SMILES comes first, the peptide text is derived from it.
QUANTITY: remaining at 3 h, 100 μM
Numeric answer plus unit only.

Ask: Would you kindly share the measured remaining at 3 h, 100 μM for CSCC[C@H](NC(=O)[C@H](C)NC(=O)[C@@H](N)C(C)C)C(=O)N1CCC[C@H]1C(=O)O [VAMP] (H-VAMP-OH) ?
Result: 98.6%

###

Test: in vitro
Format: in vitro ADME
Details: cells or culture medium, VAMP (%) remaining, 3 h
Where a SMILES comes first, the peptide text is derived from it.
QUANTITY: remaining at 3 h, 100 μM (%)
Note: unit % is implicit; provide only the numeric part.

Ask: Would you kindly share the measured remaining at 3 h, 100 μM for CSCC[C@H](NC(=O)[C@H](C)NC(=O)[C@@H](N)C(C)C)C(=O)N1CCC[C@H]1C(=O)O [VAMP] (H-VAMP-OH) ?
Result: 98.5
